Where do the numbers come from? From ChEMBL document CHEMBL2163233.

assay: in vivo; details: Sprague-Dawley, rat, po, 10 umol/kg
Experimental Readout: AUC (µM·h)
Express it in µM·h; write the number only.

These recorded examples may help you get a feel for the data.
Fill in the blank: the reported AUC of O=C(NCc1cccc(OC(F)(F)F)c1)C1c2ccccc2C(=O)N1CCc1ncc(F)cn1 (stereo not given) is ____. 0.4

Then what about the compound O=C(NCc1ccc(F)c(C(F)(F)F)c1)C1c2ccccc2C(=O)N1CCc1ncc(F)cn1 (stereo not given) ? 0.2

Others:
Give the measured AUC of O=C(NCc1ccc(OC(F)(F)F)cc1)C1c2ccccc2C(=O)N1CCc1ccccn1 (stereo in doubt; 16A) . 2.1

Similarly, O=C(NCc1ccc(OC(F)(F)F)cc1)C1c2ccccc2C(=O)N1C1CCOCC1 (single isomer, unassigned; enantiomer 2) ? 1.1

Similarly, O=C(NCc1ccc(OC(F)(F)F)cc1)C1c2ccccc2C(=O)N1CCc1ncc(F)cn1 (stereo not given) ? 2.1

====

# half-life per record follows
assay: in vivo; details: Sprague-Dawley, rat, po, 10 umol/kg
Kindly answer with a numeric value in h, unit omitted.

Record request: half-life value, item O=C(NCc1ccc(OC(F)(F)F)cc1)C1c2ccccc2C(=O)N1CCc1ncc(F)cn1 (stereo not given) 2.3

Now the same for O=C(NCc1ccc(F)c(C(F)(F)F)c1)C1c2ccccc2C(=O)N1CCc1ncc(F)cn1 (stereo not given) 1.2

Note, next up: O=C(NCc1cccc(OC(F)(F)F)c1)C1c2ccccc2C(=O)N1CCc1ncc(F)cn1 (stereo not given) 8.1

What do you have for O=C(NCc1ccc(OC(F)(F)F)cc1)C1c2ccccc2C(=O)N1CCc1ccccn1 (stereo in doubt; 16A) ? 5.9

What do we get for O=C(NCc1ccc(OC(F)(F)F)cc1)C1c2ccccc2C(=O)N1C1CCOCC1 (single isomer, unassigned; enantiomer 2) ? 1.9

====

experiment: physchem
Each entry below lists one item and its recorded log10(solubility at 4 h) value.
Please note: log10 values; quantity solubility at 4 h; unit µM.

Before answering, review these 5 worked examples.
Return reported log10(solubility at 4 h); argument: O=C(NCc1ccc(OC(F)(F)F)cc1)C1c2ccccc2C(=O)N1CCc1cccnc1 (centres undefined) 1.84

Same thing, different molecule: COc1ccc(CNC(=O)C2c3ccccc3C(=O)N2CCc2ccccn2)cc1 (centres undefined) 2.56

Same thing, different molecule: CC(C)(Cc1ccccn1)N1C(=O)c2ccccc2C1C(=O)NCc1ccc(OC(F)(F)F)cc1 (centres undefined) 1.11

Item: O=C(NCc1ccc(C(F)(F)F)cc1)C1c2ccccc2C(=O)N1CCc1ccccn1 (centres undefined) 0.85

Again, but for O=C(NCc1cccc(OC(F)(F)F)c1)C1c2ccccc2C(=O)N1CCc1ncc(F)cn1 (centres undefined) 1.79

Next:
Endpoint output: log10(solubility at 4 h) of CC(C)(CN1C(=O)c2ccccc2C1C(=O)NCc1ccc(OC(F)(F)F)cc1)c1ccccn1 (centres undefined) . Value? 0.78

Can you check Cc1ccc(NC(=O)C2c3ccccc3C(=O)N2CCc2ccccn2)cc1C (centres undefined) next? 1.53

Try this molecule next: O=C(NCc1ccc(OC(F)(F)F)cc1)C1c2c(F)cccc2C(=O)N1CCc1ccccn1 (centres undefined) 1.23

====

test: in vivo; details: Sprague-Dawley, rat, po, 10 umol/kg
Experimental Readout: Tmax (min)
Give a bare numeral; the unit min is implied.

Some molecules with recorded Tmax:
Query (molecule): O=C(NCc1ccc(OC(F)(F)F)cc1)C1c2ccccc2C(=O)N1CCc1ccccn1 (stereo in doubt; 16A) ; field requested: Tmax 30

Field entry: O=C(NCc1ccc(F)c(C(F)(F)F)c1)C1c2ccccc2C(=O)N1CCc1ncc(F)cn1 (stereo not given) 18

Now give it for O=C(NCc1ccc(OC(F)(F)F)cc1)C1c2ccccc2C(=O)N1CCc1ncc(F)cn1 (stereo not given) too. 18

Same question, O=C(NCc1cccc(OC(F)(F)F)c1)C1c2ccccc2C(=O)N1CCc1ncc(F)cn1 (stereo not given) this time 24

More entries:
Any idea what its Tmax is? The molecule is O=C(NCc1ccc(OC(F)(F)F)cc1)C1c2ccccc2C(=O)N1C1CCOCC1 (single isomer, unassigned; enantiomer 2) 18
